EXPERIMENTAL DETAILS: I.P. symptomatology (highest tolerated dose, median lethal dose), Table IV
Format: in vivo
MEASUREMENT PARAMETERS: in vivo, ip, read-out: HTD (highest tolerated dose)
Counter-ions that a name gives are not always drawn.
MTD of 10 mg/kg or higher: Satisfied. Under 10 mg/kg: Not satisfied.

Tell me whether MTD is at least 10 mg/kg here: COc1ccc2c(c1)CCNCC2
Not satisfied

Proceed to COc1ccc2c(c1)CC(C)N(CC=C(C)C)CC2 (stereo not drawn) [Example 33, hydrochloride]
Not satisfied

Proceed to COc1ccc2c(c1)CCN(CC=Cc1ccccc1)CC2
Satisfied

Proceed to CCN1CCc2ccc(O)cc2CC1
Satisfied

Proceed to C[C@@H]1Cc2ccccc2CCN1 (single isomer, unassigned) [Example 49, hydrochloride]
Satisfied

====

EXPERIMENTAL DETAILS: in vivo
MEASUREMENT PARAMETERS: po
METRIC NAME: LD50

{"columns": ["MOLECULE", "LD50"],
 "data": [
  ["C=CCN1CCc2ccc(OC)cc2CC1", "> 1000 mg/kg"],
  ["COc1ccc2c(c1)CCN(CCc1ccccc1)CC2", "> 1000 mg/kg"],
  ["CC(C)=CCN1CCC2(C)c3cc(O)ccc3CC1C2C (stereo not drawn) [Pentazocine, reference compound]", "~800 mg/kg"],
  ["COc1ccc2c(c1)CCN(CCN1CCN(c3ccccc3)CC1)CC2", "~300 mg/kg"],
  ["Oc1ccc2c(c1)CCN(CC=Cc1ccccc1)CC2", "> 1000 mg/kg"]
]}

Turning now to a further record.
Value lookup for LD50; key = Oc1ccc2c(c1)CCN(CCc1ccccc1)CC2
> 1000 mg/kg

====

EXPERIMENTAL DETAILS: I.P. symptomatology (highest tolerated dose, median lethal dose), Table IV
Format: in vivo
MEASUREMENT PARAMETERS: in vivo, ip
Structures can show the parent of a compound that is named as a salt.
METRIC NAME: LD50 (mg/kg)
Report the figure in mg/kg without appending any unit label.

# example entries with known answers
{"columns": ["MOLECULE", "LD50 / mg/kg"],
 "data": [
  ["C=CCN1CCc2ccc(OC)cc2CC1C (stereo not drawn) [Example 38, hydrochloride]", 200],
  ["C=CCN1CCc2ccc(OC)cc2CC1", 80],
  ["CCN1CCc2ccc(OC)cc2CC1", 60]
]}

Turning now to a further record.
Value lookup for LD50; key = CCCN1CCc2ccc(O)cc2CC1
50

====

EXPERIMENTAL DETAILS: Narcotic antagonism I.P., Table IV
Format: in vivo
Structures can show the parent of a compound that is named as a salt.
METRIC NAME: Narcotic Antagonism

{"columns": ["COMPOUND", "Narcotic Antagonism"],
 "data": [
  ["CC1Cc2cc(O)ccc2CCN1CC1CC1 (centres unmarked) [Example 41, hydrochloride]", "Negative"],
  ["C=CCN1CCc2ccc(OC)cc2CC1C (centres unmarked) [Example 38, hydrochloride]", "Positive"],
  ["COc1ccc2c(c1)CC(C)N(C)CC2 (single isomer, unassigned; (-)) [Example 63, hydrochloride]", "Negative"],
  ["COc1ccc2c(c1)CC(C)N(CCc1ccccc1C)CC2 (centres unmarked) [Example 59, hydrochloride]", "Negative"]
]}

Value lookup for Narcotic Antagonism; key = COc1ccc2c(c1)CC(C)NCC2 (centres unmarked) [Example 32]
Negative

====

EXPERIMENTAL DETAILS: I.P. symptomatology (highest tolerated dose, median lethal dose), Table IV
Format: in vivo
MEASUREMENT PARAMETERS: in vivo, ip, read-out: HTD (highest tolerated dose)
Where a name gives a salt, the structure may show the parent alone.
Each entry falls into one class according to its MTD; the ranges are low bracket: < 10 mg/kg; middle bracket: ≥ 10 mg/kg and < 30 mg/kg; high bracket: ≥ 30 mg/kg

{"columns": ["MOLECULE", "CLASSIFICATION"],
 "data": [
  ["C=CCN1CCc2ccc(OC)cc2CC1 [Example 14]", "high bracket"],
  ["Oc1ccc2c(c1)CCN(CC1CC1)CC2 [Example 8]", "middle bracket"],
  ["COc1ccc2c(c1)CC(C)N(CCc1ccc(O)cc1)CC2 (stereo not shown) [Example 58, hydrochloride]", "low bracket"]
]}

Into which category would you place C=CCN1CCc2ccc(O)cc2CC1 [Example 11] ?
middle bracket

Proceed to Oc1ccc2c(c1)CCN(C[C@@H]1C[C@H]1c1ccccc1)CC2 (relative stereo) [Example 30]
high bracket

Proceed to Oc1ccc2c(c1)CCN(CC1CCC1)CC2 [Example 9]
middle bracket

Proceed to COc1ccc2c(c1)CCN(CCc1ccccc1)CC2 [Example 24]
high bracket

Proceed to CCN1CCc2ccc(OC)cc2CC1 [Example 20]
low bracket

Proceed to COc1ccc2c(c1)CCN(C)CC2 [Example 18]
middle bracket

Proceed to COc1ccc2c(c1)CCN(CC1CC1)CC2 [Example 7]
high bracket

Proceed to CCCN1CCc2ccc(O)cc2CC1 [Example 23]
middle bracket

Proceed to COc1ccc2c(c1)CC(C)N(CCc1ccccc1C)CC2 (stereo not shown) [Example 59, hydrochloride]
low bracket

Proceed to COc1ccc(CCN2CCc3ccc(OC)cc3CC2C)cc1 (stereo not shown) [Example 61, hydrochloride]
low bracket

Proceed to C[C@@H]1Cc2ccccc2CCN1C (single isomer, unassigned) [Example 54, hydrochloride]
low bracket

====

EXPERIMENTAL DETAILS: Narcotic antagonism I.P., Table IV
Type: in vivo
Where a name gives a salt, the structure may show the parent alone.
METRIC NAME: Narcotic Antagonism

{"columns": ["COMPOUND", "Narcotic Antagonism"],
 "data": [
  ["CC(C)=CCN1CCc2ccc(O)cc2CC1C (centres unmarked) [Example 34, hydrochloride]", "Positive"],
  ["COc1ccc2c(c1)CCNCC2", "Negative"],
  ["COc1ccc2c(c1)CC(C)N(CC=C(C)C)CC2 (centres unmarked) [Example 33, hydrochloride]", "Negative"],
  ["Oc1ccc2c(c1)CCNCC2", "Negative"],
  ["C[C@H]1Cc2ccccc2CCN1C (single isomer, unassigned) [Example 50, hydrochloride]", "Negative"]
]}

Value lookup for Narcotic Antagonism; key = C[C@@H]1Cc2ccccc2CCN1 (single isomer, unassigned) [Example 49, hydrochloride]
Negative

Proceed to Oc1ccc2c(c1)CCN(Cc1ccco1)CC2 [Example 60, hydrochloride]
Negative

====

EXPERIMENTAL DETAILS: in vivo
MEASUREMENT PARAMETERS: ip
METRIC NAME: NOAEL (mg/kg)
Report the figure in mg/kg without appending any unit label.

# example entries with known answers
{"columns": ["MOLECULE", "ASSAY VALUE"],
 "data": [
  ["CC(C)=CCN1CCC2(C)c3cc(O)ccc3CC1C2C (stereo not drawn) [Pentazocine, reference compound]", 316],
  ["Oc1ccc2c(c1)CCN(CC=Cc1ccccc1)CC2 [Example 29]", 300]
]}

Turning now to a further record.
Value lookup for NOAEL; key = COc1ccc2c(c1)CCN(CCN1CCN(c3ccccc3)CC1)CC2 [Example 31]
32

====

# key: entry, value: LD50
EXPERIMENTAL DETAILS: I.P. symptomatology (highest tolerated dose, median lethal dose), Table IV
Format: in vivo
MEASUREMENT PARAMETERS: in vivo, ip
Where a name gives a salt, the structure may show the parent alone.

# example entries with known answers
{"columns": ["COMPOUND", "LD50"],
 "data": [
  ["c1ccc2c(c1)CCN(CC1CC1)CC2 [Example 37, hydrochloride]", "60 mg/kg"],
  ["COc1ccc2c(c1)CC(C)N(CCc1ccccc1)CC2 (stereo not shown) [Example 36, hydrochloride]", "60 mg/kg"],
  ["COc1ccc2c(c1)CC(C)N(C)CC2 (stereo not shown) [Example 39, hydrochloride]", "~150 mg/kg"],
  ["CC(C)=CCN1CCc2ccc(OC(=O)C34CC5CC(CC(C5)C3)C4)cc2CC1 [Example 6, hydrochloride]", "> 300 mg/kg"],
  ["COc1ccc2c(c1)CC(C)NCC2 (stereo not shown)", "~60 mg/kg"],
  ["COc1ccc2c(c1)CC(C)N(CC1CC1)CC2 (stereo not shown) [Example 42, hydrochloride]", "60 mg/kg"],
  ["C[C@@H]1Cc2ccccc2CCN1 (single isomer, unassigned) [Example 49, hydrochloride]", "200 mg/kg"],
  ["COc1ccc2c(c1)CC(C)N(CCc1ccc(O)cc1)CC2 (stereo not shown) [Example 58, hydrochloride]", "> 300 mg/kg"]
]}

Value lookup for LD50; key = Oc1ccc2c(c1)CCNCC2
200 mg/kg

Proceed to CC1Cc2cc(O)ccc2CCN1CC1CC1 (stereo not shown) [Example 41, hydrochloride]
~60 mg/kg

Proceed to COc1ccc2c(c1)CC(C)N(CC=C(C)C)CC2 (stereo not shown) [Example 33, hydrochloride]
50 mg/kg

Proceed to Oc1ccc2c(c1)CCN(CC1CCC1)CC2
80 mg/kg

Proceed to COc1ccc2c(c1)CCN(CC=Cc1ccccc1)CC2
60 mg/kg

Proceed to COc1ccc2c(c1)CCN(CC=C(C)C)CC2
50 mg/kg

Proceed to CC(C)=CCN1CCc2ccc(O)cc2CC1
96 mg/kg

Proceed to COc1ccc2c(c1)CCNCC2
60 mg/kg

Proceed to COc1ccc2c(c1)CC(C)N(CC=Cc1ccccc1)CC2 (stereo not shown) [Example 44, hydrochloride]
60 mg/kg

Proceed to CCCN1CCc2ccc(OC)cc2CC1
50 mg/kg

Proceed to COc1ccc2c(c1)CC(C)N(CCN1CCN(c3ccccc3)CC1)CC2 (stereo not shown) [Example 40, dihydrochloride]
> 100 mg/kg

Proceed to C=CCN1CCc2ccc(O)cc2CC1
50 mg/kg
